- Assayed Target: mouse melanocortin 4 receptor (mouse) (UniProt P56450)
- Sequence (P56450 whole entry): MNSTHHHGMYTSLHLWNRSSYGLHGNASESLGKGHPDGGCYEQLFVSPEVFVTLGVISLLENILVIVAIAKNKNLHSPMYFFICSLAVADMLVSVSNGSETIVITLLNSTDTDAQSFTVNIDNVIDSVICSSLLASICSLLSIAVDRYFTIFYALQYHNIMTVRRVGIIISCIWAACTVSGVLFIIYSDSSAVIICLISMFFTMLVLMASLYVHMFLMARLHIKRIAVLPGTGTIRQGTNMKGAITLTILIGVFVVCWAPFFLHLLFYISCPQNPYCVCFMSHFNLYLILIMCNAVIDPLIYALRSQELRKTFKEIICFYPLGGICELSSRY
Square brackets hold non-standard residues; d marks the D form.
Reported values of log10(agonist EC50 (cAMP AlphaScreen, HEK293 cells stably expressing the receptor)) for individual entries
Response schema: value (number) is log10 of agonist EC50 (cAMP AlphaScreen, HEK293 cells stably expressing the receptor) in units of nM.

- Binder: "cyclo(P[dF]RWNA[dP]) (SMILES C[C@@H]1NC(=O)[C@H](CC(N)=O)NC(=O)[C@H](Cc2c[nH]c3ccccc23)NC(=O)[C@H](CCCNC(=N)N)NC(=O)[C@@H](Cc2ccccc2)NC(=O)[C@@H]2CCCN2C(=O)[C@H]2CCCN2C1=O) [c[Pro-DPhe-Arg-Trp-Asn-Ala-DPro]]"
  Numeric Result: 2.62

query: Return reported log10(agonist EC50 (cAMP AlphaScreen, HEK293 cells stably expressing the receptor)); argument: cyclo(PH[dF]RWNA[dP]) (SMILES C[C@@H]1NC(=O)[C@H](CC(N)=O)NC(=O)[C@H](Cc2c[nH]c3ccccc23)NC(=O)[C@H](CCCNC(=N)N)NC(=O)[C@@H](Cc2ccccc2)NC(=O)[C@H](Cc2c[nH]cn2)NC(=O)[C@@H]2CCCN2C(=O)[C@H]2CCCN2C1=O) [c[Pro-His-DPhe-Arg-Trp-Asn-Ala-DPro]]
result: 1.46

query: Return reported log10(agonist EC50 (cAMP AlphaScreen, HEK293 cells stably expressing the receptor)); argument: cyclo(PH[dF]RWN[dP]) [c[Pro-His-DPhe-Arg-Trp-Asn-DPro]]
result: 2.23

query: Return reported log10(agonist EC50 (cAMP AlphaScreen, HEK293 cells stably expressing the receptor)); argument: cyclo(PH[dF]RWNAF[dP]) (SMILES C[C@@H]1NC(=O)[C@H](CC(N)=O)NC(=O)[C@H](Cc2c[nH]c3ccccc23)NC(=O)[C@H](CCCNC(=N)N)NC(=O)[C@@H](Cc2ccccc2)NC(=O)[C@H](Cc2c[nH]cn2)NC(=O)[C@@H]2CCCN2C(=O)[C@H]2CCCN2C(=O)[C@H](Cc2ccccc2)NC1=O) [c[Pro-His-DPhe-Arg-Trp-Asn-Ala-Phe-DPro]]
result: 0.15

query: Return reported log10(agonist EC50 (cAMP AlphaScreen, HEK293 cells stably expressing the receptor)); argument: cyclo(P[dF]RWNAF[dP]) (SMILES C[C@@H]1NC(=O)[C@H](CC(N)=O)NC(=O)[C@H](Cc2c[nH]c3ccccc23)NC(=O)[C@H](CCCNC(=N)N)NC(=O)[C@@H](Cc2ccccc2)NC(=O)[C@@H]2CCCN2C(=O)[C@H]2CCCN2C(=O)[C@H](Cc2ccccc2)NC1=O) [c[Pro-DPhe-Arg-Trp-Asn-Ala-Phe-DPro]]
result: 2.11
